Reported CC50 at 48 h values for a set of compounds
Assay: Cytotoxicity against human PBMC cells assessed as reduction in cell viability measured after 48 hrs by Celltiter-glo luminescence assay
Assay type: cell-based

{"columns": ["compound", "CC50 at 48 h"],
 "data": [
  ["CCOC(=O)N1CCC2(CC1)C[C@H](NC(=O)c1cccc3nn[nH]c13)c1cc(Br)ccc1O2", "> 10 µM"],
  ["CCOC(=O)N1CCC2(CC1)C[C@H](NC(=O)c1cccc3cn[nH]c13)c1cc(Br)ncc1O2", "> 10 µM"],
  ["CC(C)(C)OC(=O)N1CCC2(CC1)CC(NC(=O)c1cccc3cc[nH]c13)c1ccccc1O2 (racemic)", "5.01 µM"],
  ["CCOC(=O)N1CCC2(CC1)C[C@H](NC(=O)c1ccccc1NC(=O)C(F)(F)F)c1cc(Br)ccc1O2", "> 10 µM"]
]}
